target: T1, Recombinant human EGFR-Fc (aa 1-645 of the extracellular domain of human EGFR fused to human Fc) (human, UniProt P00533 25-645); assay: SPR Biacore
T1 construct: range 1-645; bought from R&D Systems; also called EGFR645-Fc; EGFR-Fc (HER-1); not shown: human Fc
endpoint name: Kd (nM)
Unit nM implied. Number only.

Below, 3 binders whose answers are already recorded.
I1(S62C)-GS10-E5 pegylated (designed binder, PEG on Cys at position 62 of I1 (position of SEQ ID NO: 1), also called I1(S62C)-GS10-E5(5)) MGVSDVPRDLEVVAATPTSLLISWSARLKVARYYRITYGETGGNSPVQEFTVPKNVYTATICGLKPGVDYTITVYAVTRFRDYQPISINYRTEIEKGSGSGSGSGSGSGSGSGSGSVSDVPRDLEVVAATPTSLLISWWAPVDRYQYYRITYGETGGNSPVQEFTVPRDVYTATISGLKPGVDYTITVYAVTDYKPHADGPHTYHESPISINYRTEHHHHHH :: 8.7
I1-GS10-E5(S91C) pegylated (designed binder, PEG on Cys at position 91 of E5 (position of SEQ ID NO: 1), also called I1-GS10-E5(S91C)(8)) MGVSDVPRDLEVVAATPTSLLISWSARLKVARYYRITYGETGGNSPVQEFTVPKNVYTATISGLKPGVDYTITVYAVTRFRDYQPISINYRTEIEKGSGSGSGSGSGSGSGSGSGSVSDVPRDLEVVAATPTSLLISWWAPVDRYQYYRITYGETGGNSPVQEFTVPRDVYTATISGLKPGVDYTITVYAVTDYKPHADGPHTYHESPICINYRTEHHHHHH :: 17.9
I1-GS10-E5-GSGC pegylated (designed binder, PEG on the Cys of the GSGC tail of E5, alternative clone of I1-GS10-E5 pegylated; also called I1-GS10-E5-GSGC(4)) MGVSDVPRDLEVVAATPTSLLISWSARLKVARYYRITYGETGGNSPVQEFTVPKNVYTATISGLKPGVDYTITVYAVTRFRDYQPISINYRTEIEKGSGSGSGSGSGSGSGSGSGSVSDVPRDLEVVAATPTSLLISWWAPVDRYQYYRITYGETGGNSPVQEFTVPRDVYTATISGLKPGVDYTITVYAVTDYKPHADGPHTYHESPISINYRTEGSGCHHHHHH :: 1.4

Enquiry: Given the binder I1(S91C)-GS10-E5 pegylated (designed binder, PEG on Cys at position 91 of I1 (position of SEQ ID NO: 1), also called I1(S91C)-GS10-E5(7)) MGVSDVPRDLEVVAATPTSLLISWSARLKVARYYRITYGETGGNSPVQEFTVPKNVYTATISGLKPGVDYTITVYAVTRFRDYQPICINYRTEIEKGSGSGSGSGSGSGSGSGSGSVSDVPRDLEVVAATPTSLLISWWAPVDRYQYYRITYGETGGNSPVQEFTVPRDVYTATISGLKPGVDYTITVYAVTDYKPHADGPHTYHESPISINYRTEHHHHHH , write its reported Kd.
Return: 17
